From: ChEMBL document CHEMBL3352415

Quick record of IC50 values for M-phase inducer phosphatase 2 (Homo sapiens, UniProt P30305).
Numeric only. Scale: µM

# annotated cases, reported IC50 shown
# ITEM SMILES, IC50, µM
records = [
    ("Cc1ccccc1C(=O)Nc1nnc(-c2ccc(Oc3ccc([N+](=O)[O-])cc3)cc2)s1", 9.41),
    ("O=C(Nc1nnc(-c2ccc(Oc3ccc([N+](=O)[O-])cc3)cc2)s1)c1cccc(F)c1", 10.5),
    ("O=C(Nc1nnc(-c2ccc(Oc3ccc([N+](=O)[O-])cc3)cc2)s1)c1ccccc1F", 10.2),
    ("COc1cc(C(=O)Nc2nnc(-c3ccc(Oc4ccc([N+](=O)[O-])cc4[N+](=O)[O-])cc3)s2)cc(OC)c1OC", 3.99),
    ("O=C(Cc1cccc2ccccc12)Nc1nnc(-c2ccc(Oc3ccc([N+](=O)[O-])cc3[N+](=O)[O-])cc2)s1", 5.69),
]

Shift focus to the following entry.
## Input # query: IC50 | item `O=C(Nc1nnc(-c2ccc(Oc3ccc([N+](=O)[O-])cc3[N+](=O)[O-])cc2)s1)c1ccc(Cl)cc1` | system: M-phase inducer phosphatase 2 (Homo sapiens, UniProt P30305)
## Output 4.44

* * *

Recorded measurements of inhibition, one per entry
# EXPERIMENTAL TARGET: Tyrosine-protein phosphatase non-receptor type 1 (Homo sapiens)
# ASSAY INFO: Inhibition of PTP1B (unknown origin) at 5 ug/ml
# number only, unit % dropped from output

These solved cases illustrate the format of a correct answer.
# ITEM SMILES, inhibition [%]
measured = [
    ("O=C(Nc1nnc(-c2ccc(Oc3ccc([N+](=O)[O-])cc3)cc2)s1)c1cccc(F)c1", 37.1),
    ("O=C(Cc1cccc2ccccc12)Nc1nnc(-c2ccc(Oc3ccc([N+](=O)[O-])cc3[N+](=O)[O-])cc2)s1", 82.1),
    ("O=C(Nc1nnc(-c2ccc(Oc3ccc([N+](=O)[O-])cc3)cc2)s1)c1ccccc1F", 60.6),
    ("Cc1ccccc1C(=O)Nc1nnc(-c2ccc(Oc3ccc([N+](=O)[O-])cc3)cc2)s1", 60.4),
    ("Cc1ccc(C(=O)Nc2nnc(-c3ccc(Oc4ccc([N+](=O)[O-])cc4)cc3)s2)cc1", 68.4),
]

## Input # get_value(readout='inhibition', item= `O=C(Nc1nnc(-c2ccc(Oc3ccc([N+](=O)[O-])cc3)cc2)s1)c1ccc(F)cc1` )
## Output 77.1

## Input Query (compound): `O=C(Cc1ccccc1)Nc1nnc(-c2ccc(Oc3ccc([N+](=O)[O-])cc3)cc2)s1` ; field requested: inhibition
## Output 54.9

## Input So what does the record say about inhibition for `O=C(Nc1nnc(-c2ccc(Oc3ccc([N+](=O)[O-])cc3)cc2)s1)c1ccccc1` ?
## Output 79.6

* * *

# EXPERIMENTAL TARGET: M-phase inducer phosphatase 2 (Homo sapiens, UniProt P30305)
# Sequence (P30305 whole entry): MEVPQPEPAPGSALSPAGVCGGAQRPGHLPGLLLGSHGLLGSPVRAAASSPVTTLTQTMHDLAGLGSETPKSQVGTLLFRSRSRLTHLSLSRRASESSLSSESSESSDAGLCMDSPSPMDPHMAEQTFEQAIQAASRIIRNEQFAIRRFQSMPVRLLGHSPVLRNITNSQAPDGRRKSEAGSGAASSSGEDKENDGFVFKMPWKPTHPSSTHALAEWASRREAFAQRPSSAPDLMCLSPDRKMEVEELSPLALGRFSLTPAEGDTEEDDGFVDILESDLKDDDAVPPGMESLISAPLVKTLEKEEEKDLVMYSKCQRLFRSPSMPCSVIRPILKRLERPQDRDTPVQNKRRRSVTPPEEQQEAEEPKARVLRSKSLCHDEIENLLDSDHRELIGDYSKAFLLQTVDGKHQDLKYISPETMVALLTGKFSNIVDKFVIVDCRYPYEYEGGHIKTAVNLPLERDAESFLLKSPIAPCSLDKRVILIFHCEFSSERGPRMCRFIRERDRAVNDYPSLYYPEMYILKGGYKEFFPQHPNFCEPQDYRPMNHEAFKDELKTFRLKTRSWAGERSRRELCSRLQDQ
pIC50: −log10 of the molar value.
The threshold is inclusive: pIC50 of exactly 5 counts as Y; values below receive N.

Use these answered entries as a reference point.
# ITEM SMILES, EXPERIMENTAL TARGET, QUALITATIVE LABEL
rows = [
    ("COc1ccc(C(=O)Nc2nnc(-c3ccc(Oc4ccc([N+](=O)[O-])cc4)cc3)s2)cc1", "M-phase inducer phosphatase 2 (Homo sapiens, UniProt P30305)", "Y"),
    ("O=C(Nc1nnc(-c2ccc(Oc3ccc([N+](=O)[O-])cc3[N+](=O)[O-])cc2)s1)c1ccccc1[N+](=O)[O-]", "M-phase inducer phosphatase 2 (Homo sapiens, UniProt P30305)", "N"),
    ("O=C(Nc1nnc(-c2ccc(Oc3ccc([N+](=O)[O-])cc3[N+](=O)[O-])cc2)s1)c1cccc([N+](=O)[O-])c1", "M-phase inducer phosphatase 2 (Homo sapiens, UniProt P30305)", "Y"),
    ("Cc1ccc(C(=O)Nc2nnc(-c3ccc(Oc4ccc([N+](=O)[O-])cc4[N+](=O)[O-])cc3)s2)cc1", "M-phase inducer phosphatase 2 (Homo sapiens, UniProt P30305)", "Y"),
]

Turning now to a further compound:
## Input Is it the case that `O=C(Cc1ccccc1)Nc1nnc(-c2ccc(Oc3ccc([N+](=O)[O-])cc3[N+](=O)[O-])cc2)s1` has pIC50 reaching or exceeding 5?
## Output Y

* * *

# EXPERIMENTAL TARGET: Receptor-type tyrosine-protein phosphatase F (Homo sapiens, UniProt P10586)
# Sequence (P10586 whole entry): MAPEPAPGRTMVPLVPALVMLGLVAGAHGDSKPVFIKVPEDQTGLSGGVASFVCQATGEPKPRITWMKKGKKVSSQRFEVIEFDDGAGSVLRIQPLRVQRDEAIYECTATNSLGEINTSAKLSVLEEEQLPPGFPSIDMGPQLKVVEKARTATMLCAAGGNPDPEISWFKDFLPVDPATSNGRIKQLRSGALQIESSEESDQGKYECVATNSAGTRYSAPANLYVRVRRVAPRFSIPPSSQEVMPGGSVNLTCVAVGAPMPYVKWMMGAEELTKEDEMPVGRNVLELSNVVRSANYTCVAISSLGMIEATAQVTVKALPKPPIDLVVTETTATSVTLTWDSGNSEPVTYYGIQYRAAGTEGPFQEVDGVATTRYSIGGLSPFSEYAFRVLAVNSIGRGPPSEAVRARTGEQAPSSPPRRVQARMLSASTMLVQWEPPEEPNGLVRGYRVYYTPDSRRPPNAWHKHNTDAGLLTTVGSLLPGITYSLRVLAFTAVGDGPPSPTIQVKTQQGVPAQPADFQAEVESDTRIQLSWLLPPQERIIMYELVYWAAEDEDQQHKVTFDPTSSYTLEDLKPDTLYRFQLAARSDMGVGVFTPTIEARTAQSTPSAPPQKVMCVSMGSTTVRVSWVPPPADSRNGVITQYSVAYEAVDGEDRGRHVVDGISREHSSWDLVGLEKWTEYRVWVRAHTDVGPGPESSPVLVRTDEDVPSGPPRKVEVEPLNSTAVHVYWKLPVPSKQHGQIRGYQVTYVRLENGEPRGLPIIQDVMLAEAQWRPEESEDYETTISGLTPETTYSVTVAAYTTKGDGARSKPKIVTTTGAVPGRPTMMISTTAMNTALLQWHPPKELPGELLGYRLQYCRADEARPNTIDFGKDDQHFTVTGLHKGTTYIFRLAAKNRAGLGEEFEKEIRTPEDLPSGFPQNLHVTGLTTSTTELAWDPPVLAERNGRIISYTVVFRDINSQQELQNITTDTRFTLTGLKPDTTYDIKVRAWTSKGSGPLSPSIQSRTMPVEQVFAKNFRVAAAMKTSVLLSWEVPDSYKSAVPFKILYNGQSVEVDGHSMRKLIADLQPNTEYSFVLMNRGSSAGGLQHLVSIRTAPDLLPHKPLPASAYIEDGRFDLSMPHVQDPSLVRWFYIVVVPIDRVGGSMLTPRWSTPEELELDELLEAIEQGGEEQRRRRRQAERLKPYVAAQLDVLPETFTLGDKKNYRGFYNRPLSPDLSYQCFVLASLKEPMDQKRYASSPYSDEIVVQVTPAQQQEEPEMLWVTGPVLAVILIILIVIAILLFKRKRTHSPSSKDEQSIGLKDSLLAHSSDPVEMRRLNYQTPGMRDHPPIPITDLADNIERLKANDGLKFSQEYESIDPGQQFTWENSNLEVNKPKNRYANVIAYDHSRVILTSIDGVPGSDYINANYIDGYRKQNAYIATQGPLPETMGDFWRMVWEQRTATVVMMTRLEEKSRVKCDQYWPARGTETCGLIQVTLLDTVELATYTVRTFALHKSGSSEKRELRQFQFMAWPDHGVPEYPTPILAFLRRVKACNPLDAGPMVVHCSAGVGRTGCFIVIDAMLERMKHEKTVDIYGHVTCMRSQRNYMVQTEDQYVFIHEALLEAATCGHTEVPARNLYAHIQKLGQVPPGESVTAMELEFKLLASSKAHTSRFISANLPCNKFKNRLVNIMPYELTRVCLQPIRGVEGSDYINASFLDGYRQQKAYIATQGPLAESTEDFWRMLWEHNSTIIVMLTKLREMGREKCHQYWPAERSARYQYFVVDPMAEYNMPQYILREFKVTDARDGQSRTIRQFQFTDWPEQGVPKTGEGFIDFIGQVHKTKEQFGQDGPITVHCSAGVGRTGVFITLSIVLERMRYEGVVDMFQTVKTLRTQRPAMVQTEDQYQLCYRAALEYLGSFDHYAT
# ASSAY INFO: Inhibition of LAR (unknown origin)
OBSERVATION TYPE: IC50

Answered examples (6):
# ITEM SMILES, IC50
rows = [
    ("O=C(Nc1nnc(-c2ccc(Oc3ccc([N+](=O)[O-])cc3)cc2)s1)c1ccccc1F", "Not Active"),
    ("COc1cc(C(=O)Nc2nnc(-c3ccc(Oc4ccc([N+](=O)[O-])cc4[N+](=O)[O-])cc3)s2)cc(OC)c1OC", "Not Active"),
    ("O=C(Nc1nnc(-c2ccc(Oc3ccc([N+](=O)[O-])cc3)cc2)s1)c1ccccc1", "Not Active"),
    ("O=C(Nc1nnc(-c2ccc(Oc3ccc([N+](=O)[O-])cc3)cc2)s1)c1cccnc1", "Not Active"),
    ("O=C(Cc1ccccc1)Nc1nnc(-c2ccc(Oc3ccc([N+](=O)[O-])cc3[N+](=O)[O-])cc2)s1", "Not Active"),
    ("COc1ccc(C(=O)Nc2nnc(-c3ccc(Oc4ccc([N+](=O)[O-])cc4[N+](=O)[O-])cc3)s2)cc1", "Not Active"),
]

## Input Requested field: IC50. Item: `COc1ccccc1C(=O)Nc1nnc(-c2ccc(Oc3ccc([N+](=O)[O-])cc3)cc2)s1`
## Output Not Active

## Input Look at this molecule and give its reported IC50. `O=C(Nc1nnc(-c2ccc(Oc3ccc([N+](=O)[O-])cc3)cc2)s1)c1ccc([N+](=O)[O-])cc1`
## Output Not Active

* * *

# EXPERIMENTAL TARGET: UniProtKB P18031
# Sequence (P18031 whole entry): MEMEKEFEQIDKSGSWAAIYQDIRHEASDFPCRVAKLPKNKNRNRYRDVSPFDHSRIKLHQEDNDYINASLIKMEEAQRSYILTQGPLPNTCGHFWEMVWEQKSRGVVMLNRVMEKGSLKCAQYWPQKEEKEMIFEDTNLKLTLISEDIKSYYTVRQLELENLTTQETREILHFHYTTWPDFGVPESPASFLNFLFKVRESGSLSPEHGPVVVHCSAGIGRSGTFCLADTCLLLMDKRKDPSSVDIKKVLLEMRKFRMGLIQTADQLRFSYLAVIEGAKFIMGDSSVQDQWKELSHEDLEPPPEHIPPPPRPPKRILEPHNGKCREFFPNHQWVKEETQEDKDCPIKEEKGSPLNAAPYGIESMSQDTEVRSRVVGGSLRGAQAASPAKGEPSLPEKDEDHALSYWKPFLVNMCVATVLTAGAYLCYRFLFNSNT
OBSERVATION TYPE: pIC50
// pIC50 is dimensionless: -log10 of concentration (M)

# ITEM SMILES, OBSERVATION TYPE, DATA VALUE
rows = [
    ("O=C(Nc1nnc(-c2ccc(Oc3ccc([N+](=O)[O-])cc3[N+](=O)[O-])cc2)s1)c1ccccc1[N+](=O)[O-]", "pIC50", 5.09),
]

## Input For UniProtKB P18031, provide pIC50 of `O=C(Cc1ccccc1)Nc1nnc(-c2ccc(Oc3ccc([N+](=O)[O-])cc3[N+](=O)[O-])cc2)s1` please.
## Output 5.39

## Input // fetch UniProtKB P18031 pIC50 for `O=C(Nc1nnc(-c2ccc(Oc3ccc([N+](=O)[O-])cc3)cc2)s1)c1ccccc1F`
## Output 4.77

## Input State its pIC50 on UniProtKB P18031: `COc1ccc(C(=O)Nc2nnc(-c3ccc(Oc4ccc([N+](=O)[O-])cc4)cc3)s2)cc1`
## Output 5.04

## Input Notebook entry, UniProtKB P18031 assay: pIC50 of `O=C(Nc1nnc(-c2ccc(Oc3ccc([N+](=O)[O-])cc3)cc2)s1)c1ccc([N+](=O)[O-])cc1` = ?
## Output 5.44

## Input Form field - read-out: pIC50; system: UniProtKB P18031; submitted item: `O=C(Nc1nnc(-c2ccc(Oc3ccc([N+](=O)[O-])cc3)cc2)s1)c1ccc(F)cc1`
## Output 4.70

## Input Enter reported pIC50 observed with UniProtKB P18031 for `Cc1ccc(C(=O)Nc2nnc(-c3ccc(Oc4ccc([N+](=O)[O-])cc4)cc3)s2)cc1`
## Output 4.72

## Input Record `O=C(Nc1nnc(-c2ccc(Oc3ccc([N+](=O)[O-])cc3[N+](=O)[O-])cc2)s1)c1ccccc1F` : what is its pIC50 with UniProtKB P18031?
## Output 5.45

## Input What value of pIC50 on UniProtKB P18031 does `O=C(Nc1nnc(-c2ccc(Oc3ccc([N+](=O)[O-])cc3)cc2)s1)c1ccccc1[N+](=O)[O-]` have?
## Output 5.04

## Input Form field: pIC50 recorded for `O=C(Nc1nnc(-c2ccc(Oc3ccc([N+](=O)[O-])cc3)cc2)s1)c1ccco1` with UniProtKB P18031 (enter value)
## Output 4.95

## Input Provide value of pIC50 for this record tested with UniProtKB P18031: `COc1cc(C(=O)Nc2nnc(-c3ccc(Oc4ccc([N+](=O)[O-])cc4[N+](=O)[O-])cc3)s2)cc(OC)c1OC`
## Output 5.28

## Input pIC50 of `O=C(Nc1nnc(-c2ccc(Oc3ccc([N+](=O)[O-])cc3[N+](=O)[O-])cc2)s1)c1ccc([N+](=O)[O-])cc1` on UniProtKB P18031?
## Output 4.80

## Input GET /values?readout=pIC50&system=UniProtKB P18031&item= `Cc1ccccc1C(=O)Nc1nnc(-c2ccc(Oc3ccc([N+](=O)[O-])cc3)cc2)s1`
## Output 5.09
